IC50 values, listed per item
Tested on: SDMA in human colon cancer cell line HCT116
experimental-details: Cell symmetric dimethylarginine (SDMA) test, In-cell Western, HCT116 (MTAP wild-type)
Format: cell-based
condition-parameters: Homo sapiens, HCT-116, 96 h, read-out: Cell 96 h SDMA inhibition (HCT116-MTAP+/+)

Check out these entries, answers already filled in.
{"compound": "O=c1c2nn(C(F)F)cc2c2cc(F)c(Cl)cc2n1-c1cccnc1C(F)(F)F", "property-name": "IC50", "result": "> 10 µM"}
{"compound": "Cn1cc2c(n1)c(=O)n(-c1cccc3[nH]nc(F)c13)c1cc(Cl)c(F)cc21", "property-name": "IC50", "result": "> 10 µM"}
{"compound": "Cn1cc2c(n1)c(=O)n(-c1cccc3[nH]nc(Br)c13)c1cc(Cl)c(F)cc21", "property-name": "IC50", "result": "> 10 µM"}

# input compound: Cn1cc2c(n1)c(=O)n(-c1cccnc1C(F)(F)F)c1cc(Cl)c(F)cc21 (single isomer, unassigned) ; wanted: its IC50
> 10 µM

# input compound: `Cn1cc2c(n1)c(=O)n(-c1cccc(C(N)=O)c1)c1nc(C(F)(F)F)ccc21` ; wanted: its IC50
> 3 µM

# input compound: `Cn1cc2c(n1)c(=O)n(-c1cccc3ccccc13)c1cc(Cl)c(F)cc21` ; wanted: its IC50
> 10 µM

# input compound: `Cc1cncc(-n2c(=O)c3nn(C)cc3c3ccc(C(F)(F)F)nc32)c1` ; wanted: its IC50
> 3 µM

# input compound: `N#Cc1cc2c3c[nH]nc3c(=O)n(-c3cccc4[nH]ncc34)c2cc1Cl` ; wanted: its IC50
> 10 µM

# input compound: `Cn1cc2c(n1)c(=O)n(-c1ccccc1Cl)c1nc(C(F)(F)F)ccc21` ; wanted: its IC50
> 3 µM

# input compound: `CCn1cc2c(n1)c(=O)n(-c1cnccc1C)c1cc(Cl)ccc21` ; wanted: its IC50
> 10 µM

# input compound: `Cn1cc2c(n1)c(=O)n(-c1cccc3[nH]ncc13)c1cc(Cl)c(C#N)cc21` ; wanted: its IC50
> 10 µM

# input compound: `Cc1ncccc1-n1c(=O)c2[nH]ncc2c2ccc(C3CC3)nc21` ; wanted: its IC50
> 3 µM

# input compound: `Cc1ncccc1-n1c(=O)c2[nH]ncc2c2ccc(OC(F)(F)F)cc21` ; wanted: its IC50
> 3 µM

----------
System: SDMA in HCT116-MTAP-knockout cell line
experimental-details: Cell symmetric dimethylarginine (SDMA) test, In-cell Western, HCT116-MTAP-knockout
Assay type: cell-based
condition-parameters: Homo sapiens, 96 h, IC50 score class, read-out: Cell 96 h SDMA Inhibition (HCT116-MTAP−/−) (score)
property-name: IC50

Check out these entries, answers already filled in.
{"molecule": "CCn1nc2c(=O)n(-c3cccnc3)c3cc(Cl)ccc3c2c1F", "IC50": "1000 to 3000 nM"}
{"molecule": "Cn1cc2c(n1)c(=O)n(-c1cccnc1C1CC1)c1nc(C(F)(F)F)ccc21 (single isomer, unassigned) [Compound B213]", "IC50": "< 200 nM"}
{"molecule": "O=c1c2nn(C3CC3)cc2c2ccc(C(F)(F)F)nc2n1-c1cccc2[nH]ncc12", "IC50": "200 to 1000 nM"}

Attention now turns to another entry.
# input molecule: `Cn1cc2c(n1)c(=O)n(-c1cccc3[nH]ncc13)c1cc(Cl)ccc21` ; wanted: its IC50
< 200 nM

----------
Test system: SDMA in HCT116-MTAP-knockout cell line
experimental-details: Cell symmetric dimethylarginine (SDMA) test, In-cell Western, HCT116-MTAP-knockout
Assay type: cell-based
condition-parameters: Homo sapiens, 96 h, IC50 score class, read-out: Cell 96 h SDMA Inhibition (HCT116-MTAP−/−) (score)
pIC50: −log10 of the molar value.
pIC50 values, listed per item

# input molecule: `Cn1cc2c(n1)c(=O)n(-c1cccnc1)c1nc(C(F)(F)F)ccc21` ; wanted: its pIC50
> 6.70

# input molecule: `Cn1cc2c(n1)c(=O)n(-c1cccc(O)c1)c1cc(Cl)ccc21` ; wanted: its pIC50
6.00 to 6.70

# input molecule: `Cc1ncccc1-n1c(=O)c2[nH]ncc2c2ccc(Cl)cc21` ; wanted: its pIC50
> 6.70

----------
System: HCT116-MTAP-knockout (−/−) cell strain
experimental-details: Tumor cell proliferation inhibition assay (CellTiter-Glo), HCT116-MTAP-knockout (-/-)
Type: cell-based
condition-parameters: Homo sapiens, 120 h, HCT116-MTAP-knockout (−/−) cells, 5-day treatment, IC50 score, read-out: Tumor cell 5-day relative growth inhibition (HCT116-MTAP−/−) (nM), score
property-name: IC50

{"compound": "O=c1c2nn(C3CC3)cc2c2ccc(C(F)(F)F)nc2n1-c1cccc2[nH]ncc12 [Compound B250]", "IC50": "< 500 nM"}
{"compound": "CCn1cc2c(n1)c(=O)n(-c1cccnc1)c1nc(C(F)(F)F)ccc21 [Compound B29]", "IC50": "< 500 nM"}
{"compound": "Cc1c2c(nn1C(F)F)c(=O)n(-c1cccc3[nH]ncc13)c1nc(C(F)(F)F)ccc21 [Compound B254]", "IC50": "< 500 nM"}

# input compound: Cn1cc2c(n1)c(=O)n(-c1cccc3[nH]ncc13)c1nc(C(F)(F)F)ccc21 [Compound B181] ; wanted: its IC50
< 500 nM

# input compound: CCn1cc2c(n1)c(=O)n(-c1cccnc1)c1cc(Cl)ccc21 [Compound B3] ; wanted: its IC50
< 500 nM

----------
experimental-details: Stability test in liver microsomes, rat
Assay type: in vitro ADME, Sprague-Dawley rats
condition-parameters: Sprague-Dawley; rat liver microsomes 0.5 mg/mL, 1.0 μM substrate, up to 60 min; read-out: Metabolic half-life in rat liver microsome (T½, min)
property-name: half-life at 1 μM

Check out these entries, answers already filled in.
{"record-smiles": "Cn1cc2c(n1)c(=O)n(-c1cccc3[nH]ncc13)c1nc(C(F)(F)F)ccc21", "half-life at 1 μM": "> 145 min"}
{"record-smiles": "Cn1cc2c(n1)c(=O)n(-c1cccc3[nH]ncc13)c1cc(Cl)ccc21", "half-life at 1 μM": "> 145 min"}

Attention now turns to another entry.
# input compound: `Cn1cc2c(n1)c(=O)n(-c1cccnc1)c1cc(Cl)ccc21` ; wanted: its half-life at 1 μM
> 145 min

----------
System: HCT116-MTAP wild-type (+/+)-cell strain
experimental-details: Tumor cell proliferation inhibition assay (CellTiter-Glo), HCT116-MTAP wild-type (+/+)
Type: cell-based
condition-parameters: Homo sapiens, 120 h, HCT116-MTAP wild-type (+/+) cells, 5-day treatment, IC50 value, read-out: Tumor cell 5-day relative growth inhibition (HCT116-MTAP+/+)
pIC50: −log10 of the molar value.
pIC50 values, listed per item

Check out these entries, answers already filled in.
{"compound": "Cn1cc2c(n1)c(=O)n(-c1cccnc1C(F)(F)F)c1cc(Cl)c(F)cc21 [Compound B342]", "experimental-system": "HCT116-MTAP wild-type (+/+)-cell strain", "property-name": "pIC50", "result": "< 5.00"}
{"compound": "Cn1cc2c(n1)c(=O)n(-c1cnccn1)c1nc(C(F)(F)F)ccc21 [Compound B227]", "experimental-system": "HCT116-MTAP wild-type (+/+)-cell strain", "property-name": "pIC50", "result": "≤ 5.70"}
{"compound": "Cn1cc2c(n1)c(=O)n(-c1cccc3[nH]ncc13)c1nc(C(F)(F)F)c(F)cc21 [Compound B274]", "experimental-system": "HCT116-MTAP wild-type (+/+)-cell strain", "property-name": "pIC50", "result": "< 5.00"}

# input compound: Cn1cc2c(n1)c(=O)n(-c1cncc(O)c1)c1nc(C(F)(F)F)ccc21 [Compound B221] ; wanted: its pIC50
< 5.70

# input compound: Cn1cc2c(n1)c(=O)n(-c1cccc3[nH]ncc13)c1cc(Cl)c(C#N)cc21 [Compound B258] ; wanted: its pIC50
< 5.00

----------
Test system: HCT116-MTAP-knockout (−/−) cell strain
experimental-details: Tumor cell proliferation inhibition assay (CellTiter-Glo), HCT116-MTAP-knockout (-/-)
Assay type: cell-based
condition-parameters: Homo sapiens, 120 h, HCT116-MTAP-knockout (−/−) cells, 5-day treatment, IC50 score, read-out: Tumor cell 5-day relative growth inhibition (HCT116-MTAP−/−) (nM), score
property-name: IC50

Check out these entries, answers already filled in.
{"compound": "O=c1c2[nH]ncc2c2ccc(Cl)cc2n1-c1cccnc1 [Compound B13]", "IC50": "< 500 nM"}
{"compound": "Cn1cc2c(n1)c(=O)n(-c1cccc3ccccc13)c1cc(Cl)c(F)cc21 [Compound B370]", "IC50": "≥ 2000 nM"}
{"compound": "Cc1ncccc1-n1c(=O)c2n[nH]cc2c2ccc(C(F)(F)F)nc21 [Compound B96]", "IC50": "< 500 nM"}

Attention now turns to another entry.
Return IC50 measured with HCT116-MTAP-knockout (−/−) cell strain given this compound: Cn1cc2c(n1)c(=O)n(-c1cccnc1C(F)(F)F)c1cc(Cl)c(F)cc21 [Compound B342]
< 500 nM
